Provenance of the data: paper PMC2774688

Molecular target: B-Raf(V600E) (Homo sapiens, UniProt P15056, V600E)
Construct: Full-length B-Raf wild-type (WT) and B-Raf(V600E) (NM_004333) cDNAs were subcloned from pcDNA3.1 into pcDNA5TO; expressed in transfected cells
Sequence (P15056 whole entry V600E): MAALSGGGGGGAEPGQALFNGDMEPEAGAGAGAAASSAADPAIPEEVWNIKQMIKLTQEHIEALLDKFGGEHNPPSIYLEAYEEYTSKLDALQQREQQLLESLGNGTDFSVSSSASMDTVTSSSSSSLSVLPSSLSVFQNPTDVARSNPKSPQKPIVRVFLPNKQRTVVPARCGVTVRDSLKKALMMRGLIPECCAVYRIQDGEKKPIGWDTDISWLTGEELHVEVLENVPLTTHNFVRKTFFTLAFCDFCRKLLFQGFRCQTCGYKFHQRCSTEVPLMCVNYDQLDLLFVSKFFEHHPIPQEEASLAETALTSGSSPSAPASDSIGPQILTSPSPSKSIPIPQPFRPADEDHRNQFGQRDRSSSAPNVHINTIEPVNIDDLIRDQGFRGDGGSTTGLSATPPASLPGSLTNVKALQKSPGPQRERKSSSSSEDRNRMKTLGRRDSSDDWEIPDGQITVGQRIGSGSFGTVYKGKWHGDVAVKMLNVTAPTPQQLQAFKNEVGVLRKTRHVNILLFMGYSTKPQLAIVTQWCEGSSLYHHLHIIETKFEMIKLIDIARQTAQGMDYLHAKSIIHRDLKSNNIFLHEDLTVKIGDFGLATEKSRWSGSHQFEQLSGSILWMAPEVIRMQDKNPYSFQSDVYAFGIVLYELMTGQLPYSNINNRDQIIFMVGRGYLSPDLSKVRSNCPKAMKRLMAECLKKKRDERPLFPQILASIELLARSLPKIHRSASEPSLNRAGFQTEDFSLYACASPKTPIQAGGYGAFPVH
Experiment: B-Raf(V600E)/MEK1(KD) cellular TR-FRET assay (double stable HEK293 T-Rex cells)
Type: cell-based
Conditions: B-Raf(V600E) TR-FRET, kinase-inactive MEK(KD) substrate, 384-well, ~2h compound treatment; SD in parentheses (n=4-6)
pIC50: −log10 of the molar value.
Can you tell me pIC50 for the items I'm about to list?

{"columns": ["COMPOUND", "ASSAY SYSTEM", "pIC50"],
 "data": [
  ["O=c1cc(N2CCOCC2)oc2c(-c3ccccc3)cccc12 [LY294002]", "B-Raf(V600E) (Homo sapiens, UniProt P15056, V600E)", "< 4.48"]
]}

Find the recorded pIC50 belonging to COC[C@H]1OC(=O)c2coc3c2[C@@]1(C)C1=C(C3=O)[C@@H]2CCC(=O)[C@@]2(C)C[C@H]1OC(C)=O [Wortmannin] and report it.
< 4.48

====

Target: B-Raf(V600E) (Homo sapiens, UniProt P15056, V600E)
Construct: Full-length B-Raf wild-type (WT) and B-Raf(V600E) (NM_004333) cDNAs were subcloned from pcDNA3.1 into pcDNA5TO; expressed in transfected cells
Assay: B-Raf(V600E)/cSTKpep-3 cellular TR-FRET assay (double stable HEK293 T-Rex cells)
Format: cell-based
Conditions: cSTKpep-3 substrate, 384-well, ~2h compound treatment, SD in parentheses (n=4-6)
METRIC NAME: IC50

{"columns": ["COMPOUND", "OBSERVED"],
 "data": [
  ["O=c1cc(N2CCOCC2)oc2c(-c3ccccc3)cccc12 [LY294002]", "> 33 µM"]
]}

Proceeding to the next compound to report its IC50.
Find the recorded IC50 belonging to COC[C@H]1OC(=O)c2coc3c2[C@@]1(C)C1=C(C3=O)[C@@H]2CCC(=O)[C@@]2(C)C[C@H]1OC(C)=O [Wortmannin] and report it.
> 33 µM
